observedProperty: melting point (°C)

1. CCN1Cc2ccc([C@](C)(C#N)Cc3cccc(C#N)c3)cc2NC1=O
2. CCN1Cc2ccc(C(C)(C#N)Cc3cccc(I)c3)cc2NC1=O (stereo not drawn)
Input: Identify the entry with the larger melting point. Options: 1 and 2 Indicate which entry you chose by stating its label.
Output: 1
(1: 152 °C, 2: 83 °C)

###

observedProperty: melting point (°C)

Check out these entries, answers already filled in.
compound	melting point [°C]
CN1Cc2ccc(C(C)(C#N)Cc3ccccc3)cc2NC1=O (stereo not shown)	210
CCN1Cc2ccc([C@@](C)(C#N)Cc3ccccc3)cc2NC1=O	124
CCN1Cc2ccc([C@](C)(C#N)Cc3ccccc3)cc2NC1=O	124

P. CCN1Cc2ccc([C@@](C)(C#N)Cc3cccc(C#N)c3)cc2NC1=O
Q. CCN1Cc2ccc([C@](C)(C#N)Cc3nc(OC)cc(OC)n3)cc2NC1=O (single isomer, unassigned)
R. CCN1Cc2ccc([C@](C)(C#N)[C@@H]3CCc4c(Cl)ccnc43)cc2NC1=O
Input: Sort by melting point, descending. I'd appreciate it if you listed the labels in the requested order.
Output: R, P, Q
